# Tested on: SK-MEL-2 melanoma
# Protocol text: NCI-60 one-dose screen, 48 h (100 = growth as untreated, 0 = no growth, -100 = all killed)
# Assay context: 10 µM unless noted
About 83,000 compounds went through this panel and 20% of them were active in at least one assay; those are over-represented in the sample as a whole. Activity calls are given as the source filed them. How the source made its calls: active means growth percent below 10; inactive means the rest.
Reported growth values are given for each entry in this list.

Example cases with answers are listed next.
{"columns": ["Molecular string", "Assay result"],
 "data": [
  ["COc1cc(C(C)=C(c2ccc(OCCN(C)C)cc2)c2ccc(OCCN(C)C)cc2)ccc1F", "109% (inactive)"],
  ["COc1ccc(-c2cnc(NC(=O)CCCCCCNC(=O)C(O)(O)C(F)(F)F)s2)cc1", "-27.3% (active)"],
  ["CCC(=C(c1ccc(OCCN2CCCCCC2)cc1)c1ccc(OCCN2CCCCCC2)cc1)c1ccc(Cl)cc1", "-29.9% (active)"],
  ["CNc1sc(S(=O)(=O)NC)nc1S(=O)(=O)c1ccc(C)cc1", "103% (inactive)"],
  ["Cc1ccsc1[C@H]1c2[nH]c3ccccc3c2C[C@H]2C(=O)N(CCCCCCC(=O)NO)CC(=O)N12", "92% (inactive)"]
]}

Find the recorded growth belonging to CCCNNC(=O)c1ccc(-c2ccc(NC(=O)CCCCCCC(=O)N[C@H](C(=O)N3C[C@H](O)C[C@H]3C(=O)N[C@@H](C)c3ccc(-c4scnc4C)cc3)C(C)(C)C)cc2)cc1 and report it. 7.01% (active)

What do you have for Cc1ccc(CSC2=C(Cl)CN(c3ccc(Cl)cc3)C2=O)cc1 ? 104% (inactive)

What do you have for O=C(CSc1nc2ccccc2c(=O)n1-c1ccccc1)N/N=C/c1ccc(Oc2ccc(Cl)cc2)cc1 ? 86.9% (inactive)

What do you have for O=C(CCCCCCNC(=O)C(O)(O)C(F)(F)F)Nc1nc2ccccc2s1 ? -7.95% (active)

* * *

# System: EKVX NSCLC
# Protocol text: NCI-60 one-dose screen, 48 h (100 = growth as untreated, 0 = no growth, -100 = all killed)
# Assay context: 10 µM unless noted
About 83,000 compounds went through this panel and 20% of them were active in at least one assay; those are over-represented in the sample as a whole.
API: label(entry) gives Fulfilled if the entry's growth is strictly smaller than 80%; on equality or larger values it gives Not fulfilled.

{"columns": ["Molecule", "Class"],
 "data": [
  ["Nc1ncc(-c2ccc3ncnc(NCc4ccccc4)c3c2)cn1", "Fulfilled"],
  ["Cc1[nH]c(C(=O)Nc2ccccc2OCc2cccc(C(=O)NCCN)c2)cc1Cl", "Not fulfilled"],
  ["O=S1SC(c2ccccc2)=NN1c1cc(F)cc(F)c1 (stereo not given)", "Fulfilled"],
  ["Cc1ccc2c(n1)C(=O)C(Cl)=C(Nc1cccc(C(F)(F)F)c1)C2=O", "Fulfilled"],
  ["O=C(CCCCCCNC(=O)C(O)(O)C(F)(F)F)Nc1ccc(-c2ccccc2)cc1", "Fulfilled"]
]}

Hello, is growth of the following molecule strictly smaller than 80%? C#CCOc1ccccc1/C=N/Nc1nc(-c2ccc(Cl)cc2)cs1 Fulfilled

What do you have for C=C(C=O)[C@@H]1CC[C@]2(C(=O)O)CC[C@]3(C)C(CC[C@@H]4[C@@](C)(CCC#N)[C@H](C(=C)C=O)CC[C@]43C)[C@@H]12 (stereo not given in full) ? Not fulfilled

What do you have for COC(=O)c1ccc(NC2=C(Cl)C(=O)C(C)=C(C)C2=O)cc1 ? Fulfilled

What do you have for Cn1cc(-c2nnc(N)nc2-c2c[nH]c3ccc(F)cc23)c2cc(Br)ccc21 ? Fulfilled
